# credit: ChEMBL document CHEMBL4622948

# experiment: Competitive inhibition of bovine LMW-PTP isoform B using para-Nitrophenyl phosphate as substrate at pH 5 by Lineweaver-Burk double reciprocal plot analysis
# Design: species or system Bos taurus
readoutKind: Ki (µM)
Write the number in µM without appending the unit.

Looking up Cc1ncc(COP(=O)(O)O)c(C=O)c1O [PYRIDOXAL PHOSPHATE ANHYDROUS] , I found its Ki recorded as 7.6

====

Exercise: state measured Ratio for each of the compounds provided.
# Organism: Homo sapiens
# experiment: Selectivity index, ratio of Ki for LMW-PTP isoform B (unknown origin) to Ki for LMW-PTP isoform A (unknown origin)
Give the value as a plain number.

Looking up Cc1ncc(CCP(=O)(O)O)c(C=O)c1O , I found its Ratio recorded as 2.9

Looking up Cc1ccc(CCP(=O)(O)O)cc1O , I found its Ratio recorded as 11

Looking up Cc1ccc(/C=C/P(=O)(O)O)cn1 , I found its Ratio recorded as 4

Looking up O=P(O)(O)/C=C/c1cccnc1 , I found its Ratio recorded as 4.4

Looking up O=P(O)(O)/C=C/c1cccc(O)c1 , I found its Ratio recorded as 37

Looking up Cc1ccc(/C=C/P(=O)(O)O)cc1O , I found its Ratio recorded as 0.8

Looking up O=P(O)(O)CCc1cccc(O)c1 , I found its Ratio recorded as 4

Looking up Cc1ncc(/C=C/P(=O)(O)O)c(CO)c1O , I found its Ratio recorded as 372

Looking up Cc1ccc(CCP(=O)(O)O)cn1 , I found its Ratio recorded as 8.5

Looking up Cc1ccc(/C=C/P(=O)(O)O)cc1 , I found its Ratio recorded as 4.8

Looking up O=P(O)(O)CCc1cccnc1 , I found its Ratio recorded as 10.4

Looking up Cc1ncc(/C=C/P(=O)(O)O)c(C=O)c1O , I found its Ratio recorded as 22

Looking up Cc1ccc(CCP(=O)(O)O)cc1 , I found its Ratio recorded as 2.5

Looking up Cc1ncc(CCP(=O)(O)O)c(CO)c1O , I found its Ratio recorded as 53
